# Tested on: SW-620 colon
# PROTOCOL TEXT: NCI tumour cell line growth inhibition, 48 h

COMPOUND | GI50
CN(CCCNC(=O)Cc1ccc2ccc3cccc4ccc1c2c34)CCCNc1cc(-c2ccc3ccccc3c2)nc2ccccc12 | 0.465 µM
O=[N+]([O-])c1ccc2c(c1)C(c1ccccc1Cl)=Nc1cn[nH]c1N2 | 15.8 µM
CCCCC1(CN2CCOCC2)S/C(=N/c2nc(CC(=O)OCC)cs2)NC1=O (stereo unspecified) | 35.9 µM
Cc1cc(I)cc(CN(C)CCCN2CCOCC2)c1O | 33.5 µM
COc1cc2ncn(-c3cc(OCCc4ccccc4)c(C(N)=O)s3)c2cc1OC | > 25 µM
[Au+].[Au+].[Au+].[c-]1nccn1Cc1ccccc1.[c-]1nccn1Cc1ccccc1.[c-]1nccn1Cc1ccccc1 | 7.78 µM

###

# System: HCC-2998 colon
# PROTOCOL TEXT: NCI tumour cell line growth inhibition, 48 h
VALUE KIND: TGI

COMPOUND | RESULT
O=C1[C@H]2ON(c3ccccc3)C(c3ccc(Cl)cc3)[C@H]2C(=O)N1c1ccc(Cc2ccc(N3C(=O)[C@@H]4ON(c5ccccc5)C(c5ccc(Cl)cc5)[C@@H]4C3=O)cc2)cc1 (some centres undefined) | > 100 µM
CCc1ccccc1NC(=O)c1sc2nc3c(cc2c1N)C(=O)CCC3 | > 100 µM
O=C(CSc1nnc(Cc2ccccc2)o1)Nc1ccc([N+](=O)[O-])cc1 | > 100 µM
CCOc1ccc(-c2nc(-c3oc4ccccc4c(=O)c3OC(C)=O)cs2)cc1 | > 10 µM

###

# System: SK-MEL-2 melanoma
# PROTOCOL TEXT: NCI tumour cell line growth inhibition, 48 h
This listing pairs molecules with measured TGI.

MOLECULE | TGI
O=C(CSc1nnc(Cc2ccccc2)o1)Nc1ccc([N+](=O)[O-])cc1 | > 100 µM
CC(=O)N1N=C(c2ccc3ccccc3c2O)CC1C(=O)c1ccco1 (stereo unspecified) | 52.8 µM
Cc1ccc(S(=O)(=O)NCCNc2nccc(-c3c(-c4ccc(F)cc4)nc4sccn34)n2)cc1 | 38.2 µM
COCCOc1cnc2ccn([C@H](C)c3nnc4c(F)cc(-c5cnn(C)c5)cn34)c(=O)c2c1 | > 100 µM
NCCN=C(Nc1ccccc1)Nc1ccccc1 | > 100 µM
COc1cc2c3c(n(CCCN(C)C)c(=O)c2cc1OC)-c1ccccc1C3=O | > 100 µM

###

# Tested on: HCT-116 colon
# PROTOCOL TEXT: NCI tumour cell line growth inhibition, 48 h

SMILES RECORD | TEST TARGET | VALUE UNIT | BOUND TYPE | TGI
CC(=O)O[C@H](C[C@H](C(C)C)N(C)C(=O)[C@@H](NC(=O)[C@H]1CCCCN1C)C(C)C)c1nc(C(=O)N[C@@H](Cc2ccccc2)C[C@H](C)C(=O)O)c(CCOCc2ccccc2)s1 | HCT-116 colon | µM | = | 0.176
NC(N)=NCCCCCNc1noc(Cc2c[nH]c3cc(Br)ccc23)n1 | HCT-116 colon | µM | = | 37
O=C(Cc1ccccc1)NN1C(=O)/C(=C\c2cccc(O)c2)SC1=Nc1ccccc1 | HCT-116 colon | µM | > | 100
O=C(Nc1ccc(Br)cc1)c1ccc(Cl)c(Cl)c1 | HCT-116 colon | µM | = | 8.07
CN[C@@H](C)[C@H](NC)c1ccccc1 | HCT-116 colon | µM | > | 100

###

# Tested on: HOP-92 NSCLC
# PROTOCOL TEXT: NCI tumour cell line growth inhibition, 48 h

COMPOUND | TGI
CCCCCC(=O)NC(=S)Nc1nn[nH]n1 | > 100 µM
CC1=NN2C(=N)/C(=C/c3ccco3)C(=O)N=C2S1 | > 100 µM
Nc1ccc(N=Nc2ccccc2)cc1 | > 100 µM
O=C1NC(N/N=C/C(O)C(O)C(O)CO)=N/C1=C\c1ccco1 (stereo not drawn) | > 100 µM
N=C(N)c1ccc(N=Nc2c(O)ccc3c2[nH]c2ccccc23)cc1 | > 100 µM
Cc1cc(C2CC(O)C(CO)O2)cc2c(=O)[nH]c(N)nc12 (stereo not drawn) | > 100 µM
C1CNCCNCCN1 | > 100 µM
CC1(C)O/C(=C\c2ccccc2)C(=O)/C(=C/c2ccccc2)O1 | > 100 µM
O=c1[nH]nc(Cc2ccc([N+](=O)[O-])cc2)n1CCO | > 100 µM
CN(O)C(=O)c1cccc(Cl)c1 | > 100 µM
COc1ccc(C2c3cc(OC)c(OC)cc3C(Cc3ccc([N+](=O)[O-])cc3)C2c2ccc([N+](=O)[O-])cc2)cc1OC (stereo not drawn) | > 100 µM
N#Cc1nc(-c2cccs2)oc1N | > 100 µM
N.N.N.N.[Cl-].[Co+3].[N-]=[N+]=[N-].[N-]=[N+]=[N-] | > 100 µM

###

This listing pairs compounds with measured TGI.
# System: NCI-H522 lung
# PROTOCOL TEXT: NCI tumour cell line growth inhibition, 48 h

COMPOUND | TEST TARGET | VALUE UNIT | BOUND TYPE | TGI
Cc1ccc(C2(O)CC(c3ccc([N+](=O)[O-])o3)=NN2C(=O)COc2ccc(Cl)cc2)cc1 (centres undefined) | NCI-H522 lung | µM | = | 34.2
Cc1[nH]c(=O)[nH]c(=O)c1/C=C/C(=O)O | NCI-H522 lung | µM | > | 1000
CCOC(=O)/C=C(/C(=O)OCC)n1ccc(N)nc1=O | NCI-H522 lung | µM | = | 54.8
COc1ccc(-c2c[nH]c(=S)n2-c2ccc(OC)cc2)cc1 | NCI-H522 lung | µM | > | 50

###

This listing pairs compounds with measured TGI.
# Test system: OVCAR-8 ovarian
# PROTOCOL TEXT: NCI tumour cell line growth inhibition, 48 h
Where a SMILES comes first, the peptide text is derived from it. The star is where a group is joined. X36 = O=C(c1ccc(-c2ccc(Cl)cc2Cl)o1)*

COMPOUND | TGI
CN(C)Cc1cc(C(=O)/C=C/c2ccccc2Cl)cc(CN(C)C)c1O | 31.9 µM
CCC1(C)N=C(c2cnccn2)NN1c1ccc(Cl)cc1 (stereo not drawn) | > 100 µM
CCC(C)C(NC(=O)CNC(=O)C(Cc1ccccc1)NC(=O)C1CCCN1C(=O)c1ccc(-c2ccc(Cl)cc2Cl)o1)C(=O)OC (stereo not drawn) (X36-PFGI-OMe; configuration not given here) | > 100 µM

###

This listing pairs compounds with measured TGI.
# Tested on: M14 melanoma
# PROTOCOL TEXT: NCI tumour cell line growth inhibition, 48 h
Where a SMILES comes first, the peptide text is derived from it. The star is where a group is joined. X36 = O=C(c1ccc(-c2ccc(Cl)cc2Cl)o1)*

COMPOUND | TGI
CCC(C)C(NC(=O)CNC(=O)C(Cc1ccccc1)NC(=O)C1CCCN1C(=O)c1ccc(-c2ccc(Cl)cc2Cl)o1)C(=O)OC (centres undefined) (X36-PFGI-OMe; configuration not given here) | > 100 µM
C=CCCC(=O)CC(O)(C(F)(F)F)C(F)(F)F | > 100 µM
CCOC(=O)CNC(=O)c1ccccc1Nc1ccnc(C(F)(F)F)c1 | > 74.9 µM
Oc1cc(C2OCCCO2)cc(O)c1O | > 100 µM

###

# Test system: UACC-62 melanoma
# PROTOCOL TEXT: NCI tumour cell line growth inhibition, 48 h

MOLECULE | TEST TARGET | TGI
CNC(=O)Oc1ccc(-c2cn3cc(OC(=O)NC)ccc3n2)cc1 | UACC-62 melanoma | > 100 µM
COc1cc2c(cc1O)C1Cc3ccc(OC)c(O)c3C(C2)N1C (stereo unspecified) | UACC-62 melanoma | > 100 µM
Cc1ccc(-c2cc(N)n(-c3nc4c(c(=O)n(C)c(=O)n4C)n3C)n2)cc1 | UACC-62 melanoma | > 100 µM
O=C1CC2C(=O)N(Cc3ccccc3)C1C=C2S(=O)(=O)c1ccccc1 (stereo unspecified) | UACC-62 melanoma | > 100 µM
CCCCCC(=O)NC(=S)Nc1nn[nH]n1 | UACC-62 melanoma | > 100 µM
CN(C)C(=S)/N=c1\ss/c(=N\C(=S)N(C)C)n1-c1ccc(Cl)c(Cl)c1 | UACC-62 melanoma | > 100 µM

###

# Tested on: BT-549 breast
# PROTOCOL TEXT: NCI tumour cell line growth inhibition, 48 h
This listing pairs compounds with measured TGI.

SMILES RECORD | TEST TARGET | VALUE UNIT | BOUND TYPE | TGI
CCOP(=O)(OCC)c1c(C(=O)OC)cc(=O)[nH]c1-c1ccc(C)cc1 | BT-549 breast | µM | = | 20.3
O=[N+]([O-])c1ccc2c(c1)C(c1ccccc1Cl)=Nc1cn[nH]c1N2 | BT-549 breast | µM | > | 25
O=c1c2c([N+](=O)[O-])cccc2nc2[nH]c3ccccc3n12 | BT-549 breast | µM | = | 51.1
